Item-by-item account of inhibition at 10 µM
Target: cloned human MC4R (Homo sapiens, UniProt P32245)
Construct: made in house; host or cells: Hi5 insect cells (baculovirus infection); membrane preparation
Sequence (P32245 whole entry): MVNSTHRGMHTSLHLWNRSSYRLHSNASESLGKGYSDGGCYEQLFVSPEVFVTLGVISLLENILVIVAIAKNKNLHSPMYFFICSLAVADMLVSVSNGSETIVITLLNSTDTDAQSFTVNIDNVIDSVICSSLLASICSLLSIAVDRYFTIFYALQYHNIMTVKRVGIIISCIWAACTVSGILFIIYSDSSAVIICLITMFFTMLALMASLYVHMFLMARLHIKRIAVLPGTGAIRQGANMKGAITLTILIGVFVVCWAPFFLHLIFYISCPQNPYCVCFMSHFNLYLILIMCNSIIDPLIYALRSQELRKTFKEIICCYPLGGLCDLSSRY
Assay: Membrane binding assay: competitive inhibition of [125I]NDP-α-MSH binding
Conditions: at 10 μM; [125I]NDP-α-MSH displacement; read-out: Displacement Rate (%) (at 10 μM)

- compound: "N[C@@H](Cc1ccc(OCc2ccccc2)cc1)C(=O)N1CCCN(Cc2ccccc2Sc2ccc(Cl)cc2)CC1 [Example 2]"
  inhibition at 10 µM: "91 to 100%"
- compound: "N[C@@H](Cc1ccc(-c2cccc(Cl)c2)cc1)C(=O)N1CCN(Cc2cccc(Cl)c2Cl)CC1 [Example 301]"
  inhibition at 10 µM: "91 to 100%"
- compound: "N[C@@H](Cc1ccc(OCc2ccccc2)cc1)C(=O)N1CCCN(Cc2ccc(Oc3ccccc3)cc2)CC1 [Example 33]"
  inhibition at 10 µM: "71 to 90%"
- compound: "N[C@@H](Cc1ccc(OCc2ccccc2)cc1)C(=O)N1CCCN(Cc2ccc(-c3ccc(Cl)cc3)o2)CC1 [Example 6]"
  inhibition at 10 µM: "91 to 100%"
- compound: "COc1cc(CN2CCN(C(=O)[C@@H](N)Cc3ccc(OCc4ccccc4)cc3)CC2)ccc1OCc1ccc([N+](=O)[O-])cc1 [Example 150]"
  inhibition at 10 µM: "35 to 70%"

Here is the next item to consider.
Query block: Request - read-out inhibition at 10 µM | tested on cloned human MC4R (Homo sapiens, UniProt P32245) | compound N[C@@H](Cc1ccc(OCc2ccccc2)cc1)C(=O)N1CCN(Cc2ccc(C(F)(F)F)cc2)CC1 [Example 138]
Result block: 35 to 70%

* * *

Biological target: cloned human MC4R (Homo sapiens, UniProt P32245)
Construct: made in house; host or cells: Hi5 insect cells (baculovirus infection); membrane preparation
Experiment: Membrane binding assay: competitive inhibition of [125I]NDP-α-MSH binding
Details: read-out: MC4R IC50
Protocol: Hi5 cells are infected using the following protocol: Cells at a density of 1×10^6 cells/mL are spun down at 1000 rpm (Beckman GS-6KR centrifuge) for 10 minutes. Cells are resuspended in 10% of their original volume in a sterile 50 mL conical centrifuge tube wrapped with aluminum foil. […] Protein content is determined (Bradford, Bio-Rad Protein Assay). […] Dose-response curves are fitted by […] analyses and IC50 values are calculated using ExcelFit.
measured-property: IC50

Examples from the recorded data:
- compound: "N[C@@H](Cc1ccc(OCCc2cccc(F)c2)cc1)C(=O)N1CCN(Cc2cccc(Cl)c2Cl)CC1 [Example 240]"
  study-system: "cloned human MC4R (Homo sapiens, UniProt P32245)"
  obs-value: "< 1500 nM"
- compound: "COc1cc(COc2ccc(C[C@H](N)C(=O)N3CCN(Cc4cccc(Cl)c4Cl)CC3)cc2)cc(OC)c1 [Example 194]"
  study-system: "cloned human MC4R (Homo sapiens, UniProt P32245)"
  obs-value: "1500 to 3000 nM"
- compound: "N[C@@H](Cc1ccc(OCc2cccc(Oc3ccccc3)c2)cc1)C(=O)N1CCN(Cc2cccc(Cl)c2Cl)CC1 [Example 193]"
  study-system: "cloned human MC4R (Homo sapiens, UniProt P32245)"
  obs-value: "< 1500 nM"

Query block: Request - read-out IC50 | tested on cloned human MC4R (Homo sapiens, UniProt P32245) | compound N[C@@H](Cc1ccc(OCc2ccccc2)cc1)C(=O)N1CCCN(Cc2ccc([N+](=O)[O-])cc2)CC1 [Example 61]
Result block: > 3000 nM

Query block: Request - read-out IC50 | tested on cloned human MC4R (Homo sapiens, UniProt P32245) | compound CC(C)(C)c1cc(CN2CCCN(C(=O)[C@@H](N)Cc3ccc(OCc4ccccc4)cc3)CC2)cc(C(C)(C)C)c1O [Example 26]
Result block: 1500 to 3000 nM

Query block: Request - read-out IC50 | tested on cloned human MC4R (Homo sapiens, UniProt P32245) | compound CC(C)(C)c1ccc(CN2CCN(C(=O)[C@@H](N)Cc3ccc(OCc4ccccc4)cc3)CC2)cc1 [Example 112]
Result block: 1500 to 3000 nM

Query block: Request - read-out IC50 | tested on cloned human MC4R (Homo sapiens, UniProt P32245) | compound COc1cccc(COc2ccc(C[C@H](N)C(=O)N3CCN(Cc4cccc(Cl)c4Cl)CC3)cc2)c1OC [Example 233]
Result block: > 3000 nM

Query block: Request - read-out IC50 | tested on cloned human MC4R (Homo sapiens, UniProt P32245) | compound COc1cc(CN2CCCN(C(=O)[C@@H](N)Cc3ccc(OCc4ccccc4)cc3)CC2)ccc1OCc1ccccc1 [Example 29]
Result block: 1500 to 3000 nM

Query block: Request - read-out IC50 | tested on cloned human MC4R (Homo sapiens, UniProt P32245) | compound N[C@@H](Cc1ccc(-c2ccc(Cl)cc2Cl)cc1)C(=O)N1CCN(Cc2cccc(Cl)c2Cl)CC1 [Example 307]
Result block: < 1500 nM

Query block: Request - read-out IC50 | tested on cloned human MC4R (Homo sapiens, UniProt P32245) | compound N[C@@H](Cc1ccc(OCc2ccccc2)cc1)C(=O)N1CCCN(Cc2cccc3ccccc23)CC1 [Example 47]
Result block: > 3000 nM

Query block: Request - read-out IC50 | tested on cloned human MC4R (Homo sapiens, UniProt P32245) | compound N[C@@H](Cc1ccc(OCc2ccccc2)cc1)C(=O)N1CCCN(Cc2ccccc2)CC1 [Example 60]
Result block: > 3000 nM

Query block: Request - read-out IC50 | tested on cloned human MC4R (Homo sapiens, UniProt P32245) | compound N[C@@H](Cc1ccc(-c2ccccc2)cc1)C(=O)N1CCN(Cc2cccc(Cl)c2Cl)CC1 [Example 289]
Result block: < 1500 nM

Query block: Request - read-out IC50 | tested on cloned human MC4R (Homo sapiens, UniProt P32245) | compound N[C@@H](Cc1ccc(OCc2ccccc2)cc1)C(=O)N1CCCN(Cc2ccccc2Sc2ccc(Cl)cc2)CC1 [Example 2]
Result block: 1500 to 3000 nM

Query block: Request - read-out IC50 | tested on cloned human MC4R (Homo sapiens, UniProt P32245) | compound N[C@@H](Cc1ccc(OCc2ccccc2)cc1)C(=O)N1CCCN(Cc2ccc(Cl)c([N+](=O)[O-])c2)CC1 [Example 64]
Result block: > 3000 nM

Query block: Request - read-out IC50 | tested on cloned human MC4R (Homo sapiens, UniProt P32245) | compound N[C@@H](Cc1ccc(OCc2ccccc2)cc1)C(=O)N1CCN(Cc2ccc(-c3ccc(Cl)cc3)o2)CC1 [Example 81]
Result block: < 1500 nM

Query block: Request - read-out IC50 | tested on cloned human MC4R (Homo sapiens, UniProt P32245) | compound Cc1ccc(S(=O)(=O)n2cc(CN3CCCN(C(=O)[C@@H](N)Cc4ccc(OCc5ccccc5)cc4)CC3)c3ccccc32)cc1 [Example 18]
Result block: < 1500 nM

* * *

Item-by-item account of IC50
Molecular target: cloned human MC4R (Homo sapiens)
Construct: made in house; host or cells: Hi5 insect cells (baculovirus infection); membrane preparation
Test: Membrane binding assay: competitive inhibition of [125I]NDP-α-MSH binding
Settings: read-out: MC4R IC50

Query block: Recorded IC50 of N[C@@H](Cc1ccc(OCc2ccccc2)cc1)C(=O)N1CCCN(CC2CCCCC2)CC1 [Example 53] , please.
Result block: > 3000 nM

Query block: Recorded IC50 of N[C@@H](Cc1ccc(OCCc2ccccc2)cc1)C(=O)N1CCN(Cc2cccc(Cl)c2Cl)CC1 [Example 238] , please.
Result block: < 1500 nM

Query block: Recorded IC50 of N[C@@H](Cc1ccc(OCc2ccccc2)cc1)C(=O)N1CCN(Cc2cccc(C(F)(F)F)c2)CC1 [Example 123] , please.
Result block: > 3000 nM

Query block: Recorded IC50 of CC(C)N1CCN(C(=O)[C@@H](N)Cc2ccc(OCc3ccccc3)cc2)CC1 [Example 143] , please.
Result block: > 3000 nM

Query block: Recorded IC50 of Nc1cccc(-c2ccc(C[C@H](N)C(=O)N3CCN(Cc4cccc(Cl)c4Cl)CC3)cc2)c1 [Example 333] , please.
Result block: > 3000 nM

Query block: Recorded IC50 of N[C@@H](Cc1ccc(OCc2ccccc2)cc1)C(=O)N1CCN(Cc2ccc(Cl)c([N+](=O)[O-])c2)CC1 [Example 114] , please.
Result block: > 3000 nM

Query block: Recorded IC50 of CCCCc1ccc(CN2CCCN(C(=O)[C@@H](N)Cc3ccc(OCc4ccccc4)cc3)CC2)cc1 [Example 35] , please.
Result block: 1500 to 3000 nM

Query block: Recorded IC50 of N[C@@H](Cc1ccc(OCCc2ccc(Cl)cc2Cl)cc1)C(=O)N1CCN(Cc2cccc(Cl)c2Cl)CC1 [Example 246] , please.
Result block: < 1500 nM

Query block: Recorded IC50 of N[C@@H](Cc1ccc(-c2cccc3c2oc2ccccc23)cc1)C(=O)N1CCN(Cc2cccc(Cl)c2Cl)CC1 [Example 336] , please.
Result block: < 1500 nM
